- System Tested: T1, rHuman HGF R/c-MET/Fc Chimera, CF (human, UniProt P08581 25-932)
- T1 construct: Bought from R&D Systems; also called HGF R/Fc; hepatocyte growth factor receptor; not shown: Fc of the bought chimera
- T1 sequence (P08581 25-932, change not shown): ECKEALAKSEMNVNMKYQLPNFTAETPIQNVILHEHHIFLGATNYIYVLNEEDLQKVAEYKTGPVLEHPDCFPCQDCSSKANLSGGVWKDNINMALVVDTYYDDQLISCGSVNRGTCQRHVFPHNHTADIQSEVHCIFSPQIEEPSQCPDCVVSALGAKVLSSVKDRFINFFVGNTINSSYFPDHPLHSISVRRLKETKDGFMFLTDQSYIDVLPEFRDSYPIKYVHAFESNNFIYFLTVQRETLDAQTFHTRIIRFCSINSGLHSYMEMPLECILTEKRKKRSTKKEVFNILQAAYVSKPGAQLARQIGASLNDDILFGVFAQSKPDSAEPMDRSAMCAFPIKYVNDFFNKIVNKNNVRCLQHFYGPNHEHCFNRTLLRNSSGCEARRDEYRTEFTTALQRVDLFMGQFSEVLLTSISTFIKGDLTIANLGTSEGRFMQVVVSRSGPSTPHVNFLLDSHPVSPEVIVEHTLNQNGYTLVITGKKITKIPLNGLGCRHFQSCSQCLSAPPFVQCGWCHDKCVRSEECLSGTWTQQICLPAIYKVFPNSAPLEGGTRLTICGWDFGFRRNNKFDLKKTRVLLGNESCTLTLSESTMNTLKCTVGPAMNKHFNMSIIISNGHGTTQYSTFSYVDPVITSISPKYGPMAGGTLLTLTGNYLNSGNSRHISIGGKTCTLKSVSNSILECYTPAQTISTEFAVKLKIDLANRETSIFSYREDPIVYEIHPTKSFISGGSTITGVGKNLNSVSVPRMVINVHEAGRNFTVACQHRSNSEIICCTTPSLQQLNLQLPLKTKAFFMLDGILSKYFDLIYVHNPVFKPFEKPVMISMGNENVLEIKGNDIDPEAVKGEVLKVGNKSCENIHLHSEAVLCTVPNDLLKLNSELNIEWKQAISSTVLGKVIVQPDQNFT
- Measurement Protocol: ECL Multispot (MSD) assay; antigen spotted on plate, Fab in solution;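 note: fab bound 1 h at 20 °C, detected by TAG-labelled antibody electrochemiluminescence, signal relative to each well's blank, ratio of 4 or more marks a hit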
Below, each entry is listed alongside its reported ECL signal.
Respond using a number only.

INSERT INTO assay_data (binder, outcome_measure, measured) VALUES
  ('Fab VH1-46_IGHD6-6*01_IGHJ1*01 S102A/S103P/S104F/H111F (APFF) & L6_IGKJ1*01 S28Q (Fab, V domains shown, Fab made in E. coli; the variable domains were cloned into Plasmid A (CH1, His and Flag tags) and Plasmid C (kappa CL); also called APFF / S28Q) VH: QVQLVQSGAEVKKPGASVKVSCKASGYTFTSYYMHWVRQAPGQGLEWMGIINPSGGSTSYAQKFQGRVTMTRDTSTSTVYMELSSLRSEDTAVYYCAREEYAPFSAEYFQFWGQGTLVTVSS VL: EIVLTQSPATLSLSPGERATLSCRASQQVSSYLAWYQQKPGQAPRLLIYDASNRATGIPARFSGSGSGTDFTLTISSLEPEDFAVYYCQQRSNWPPWTFGQGTKVEIKR', 'ECL signal', 380);

Query: Recorded ECL signal for Fab VH1-46_IGHD6-6*01_IGHJ1*01 S102A/S103P/S104F/H111F (APFF) & L6_IGKJ1*01 S28P (Fab, V domains shown, Fab made in E. coli; the variable domains were cloned into Plasmid A (CH1, His and Flag tags) and Plasmid C (kappa CL); also called APFF / S28P) VH: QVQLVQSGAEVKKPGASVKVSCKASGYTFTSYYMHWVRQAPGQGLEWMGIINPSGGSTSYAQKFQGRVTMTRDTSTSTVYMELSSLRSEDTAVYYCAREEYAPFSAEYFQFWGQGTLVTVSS VL: EIVLTQSPATLSLSPGERATLSCRASQPVSSYLAWYQQKPGQAPRLLIYDASNRATGIPARFSGSGSGTDFTLTISSLEPEDFAVYYCQQRSNWPPWTFGQGTKVEIKR , please?
Result: 318

Query: Recorded ECL signal for Fab VH1-46_IGHD6-6*01_IGHJ1*01 S102A/S103P/S104F/H111F (APFF) & L6_IGKJ1*01 S28V (Fab, V domains shown, Fab made in E. coli; the variable domains were cloned into Plasmid A (CH1, His and Flag tags) and Plasmid C (kappa CL); also called APFF / S28V) VH: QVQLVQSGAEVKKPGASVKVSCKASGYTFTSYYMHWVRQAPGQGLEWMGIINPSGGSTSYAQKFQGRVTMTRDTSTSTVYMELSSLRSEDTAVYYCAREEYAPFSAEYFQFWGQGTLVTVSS VL: EIVLTQSPATLSLSPGERATLSCRASQVVSSYLAWYQQKPGQAPRLLIYDASNRATGIPARFSGSGSGTDFTLTISSLEPEDFAVYYCQQRSNWPPWTFGQGTKVEIKR , please?
Result: 338

Query: Recorded ECL signal for Fab VH1-46_IGHD6-6*01_IGHJ1*01 S102A/S103P/S104F/H111F (APFF) & L6_IGKJ1*01 S28G (Fab, V domains shown, Fab made in E. coli; the variable domains were cloned into Plasmid A (CH1, His and Flag tags) and Plasmid C (kappa CL); also called APFF / S28G) VH: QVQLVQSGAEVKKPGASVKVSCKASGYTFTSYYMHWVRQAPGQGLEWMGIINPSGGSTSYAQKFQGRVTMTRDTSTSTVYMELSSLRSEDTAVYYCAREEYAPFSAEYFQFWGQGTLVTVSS VL: EIVLTQSPATLSLSPGERATLSCRASQGVSSYLAWYQQKPGQAPRLLIYDASNRATGIPARFSGSGSGTDFTLTISSLEPEDFAVYYCQQRSNWPPWTFGQGTKVEIKR , please?
Result: 333

Query: Recorded ECL signal for Fab VH1-46_IGHD6-6*01_IGHJ1*01 S102A/S103P/S104F/H111F (APFF) & L6_IGKJ1*01 S28T (Fab, V domains shown, Fab made in E. coli; the variable domains were cloned into Plasmid A (CH1, His and Flag tags) and Plasmid C (kappa CL); also called APFF / S28T) VH: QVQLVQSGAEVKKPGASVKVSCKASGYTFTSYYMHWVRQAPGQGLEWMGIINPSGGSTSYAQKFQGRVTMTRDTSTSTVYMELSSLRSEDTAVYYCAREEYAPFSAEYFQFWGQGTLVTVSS VL: EIVLTQSPATLSLSPGERATLSCRASQTVSSYLAWYQQKPGQAPRLLIYDASNRATGIPARFSGSGSGTDFTLTISSLEPEDFAVYYCQQRSNWPPWTFGQGTKVEIKR , please?
Result: 371

Query: Recorded ECL signal for Fab VH1-46_IGHD6-6*01_IGHJ1*01 S102A/S103P/S104F/H111F (APFF) & L6_IGKJ1*01 S28F (Fab, V domains shown, Fab made in E. coli; the variable domains were cloned into Plasmid A (CH1, His and Flag tags) and Plasmid C (kappa CL); also called APFF / S28F) VH: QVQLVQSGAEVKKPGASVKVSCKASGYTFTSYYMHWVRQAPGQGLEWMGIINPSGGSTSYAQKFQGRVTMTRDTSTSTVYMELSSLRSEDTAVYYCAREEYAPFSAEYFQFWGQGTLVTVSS VL: EIVLTQSPATLSLSPGERATLSCRASQFVSSYLAWYQQKPGQAPRLLIYDASNRATGIPARFSGSGSGTDFTLTISSLEPEDFAVYYCQQRSNWPPWTFGQGTKVEIKR , please?
Result: 223

Data origin: patent US20120316071A1
